Biological target: Induced myeloid leukemia cell differentiation protein Mcl-1 (Homo sapiens)
Experiment: Mcl-1/Noxa binding inhibitor potency, dose response, biochemical, TR-FRET (AID 1417)
Settings: Mcl-1/Noxa peptide interaction, cell-free TR-FRET (terbium/rhodamine), 2 h; measured here: absolute IC50
pIC50: −log10 of the molar value.
I'd be grateful if you could share measured pIC50 for these entries.

Cc1ccc(NC(=S)NNc2ccc([N+](=O)[O-])cc2S(=O)(=O)Nc2ccccc2C(=O)O)cc1C: 5.90

Could you tell me pIC50 for each of these compounds? They are listed below.
1. Cc1ccc(/C=c2\sc3nc(-c4ccco4)nn3c2=O)o1
2. Cc1cc(C(=O)COC(=O)c2cc(O)c3ccccc3c2O)c(C)n1CC1CCCO1 (stereo unspecified)
3. CCc1nn2c(=O)cc(COc3ccc(/C=C4\C(=N)N5N=C(C)SC5=NC4=O)cc3)nc2s1
4. CC1=NNC(=O)C1CC(=O)N/N=C(\C)c1ccco1 (stereo unspecified)

Result block:
1: 5.21; 2: > 6.40; 3: 5.42; 4: < 4.27

Could you tell me pIC50 for each of these compounds? They are listed below.
1. CCOc1cc(/C=N/Nc2nc(-c3cccs3)c(NC(C)=O)s2)ccc1O
2. CC(=O)Nc1ccc(C2=NNC(=Nc3cccc(S(=O)(=O)N(C)C)c3)SC2)cc1
3. CN(C)c1ccc(NC(=O)/C=C/c2c(Cl)cccc2Cl)cc1
4. O=C1CC(N2CCN(S(=O)(=O)c3ccccc3)CC2)C(=O)N1c1ccccc1 (stereo unspecified)
5. Cc1cccc(NC2=C(NC(=O)c3ccccc3)C(=O)c3ccccc3C2=O)c1
6. COCCN1Cc2cccc(C(=O)Nc3cccc(C)c3C)c2C1=O
7. CCN(CC)c1ccc(NC(=O)c2ccc3c(c2)c(C)c(C)n3C)cc1
8. Oc1ccc(/C=N/Nc2ccnc3cc(Cl)ccc23)cc1O

Result block:
1: > 6.40; 2: 5.52; 3: < 4.27; 4: < 4.27; 5: 5.47; 6: < 4.27; 7: < 4.27; 8: 5.70

Could you tell me pIC50 for each of these compounds? They are listed below.
1. CCOC(=O)CSc1nc(N)c(C(=O)Nc2ccc(N(C)C)cc2)s1
2. Cc1cc2c(C(C)C)c(O)c(O)c(C=O)c2c(O)c1-c1c(C)cc2c(C(C)C)c(O)c(O)c(C=O)c2c1O
3. N=C1S/C(=C\c2ccco2)C(=O)N1c1ccc2c(c1)OCO2
4. COc1ccc2[nH]c3c4c(ccc3c2c1)C(=O)C=CC4=O

Result block:
6.28
> 6.40
5.05
> 6.40

Could you tell me pIC50 for each of these compounds? They are listed below.
1. CC1=Nc2cccc3cccc(c23)N1
2. Cc1cccc(NC(=O)c2cccs2)n1
3. Nc1cccnc1Sc1cc(Cl)c(Cl)cc1Cl
4. O=C(Nc1ccc(N2CCOCC2)cc1)Nc1ccc2nc(-c3ccco3)c(-c3ccco3)nc2c1
5. COc1ccc(C(=O)c2sc3nc(-c4ccc(OC)cc4)ccc3c2N)cc1
6. Cc1cc(C)c2nc(-c3ccccn3)cc(C(=O)Nc3ccc(S(=O)(=O)Nc4onc(C)c4C)cc3)c2c1

Result block:
1: 5.58; 2: < 4.27; 3: < 4.27; 4: > 6.40; 5: < 4.27; 6: 5.55

Could you tell me pIC50 for each of these compounds? They are listed below.
1. Nc1c(C(=O)NCCN2CCOCC2)c2nc3ccccc3nc2n1Cc1ccco1
2. O=C(O)c1cccc2c1NC(c1cccc([N+](=O)[O-])c1)C1CC(Sc3ccccc3[N+](=O)[O-])C(Cl)C21 (stereo unspecified)
3. Cc1ccc(-c2cc(C(=O)NCCCn3ccnc3)c3cc(Br)ccc3n2)o1

Result block:
["< 4.27", 5.65, "< 4.27"]

Could you tell me pIC50 for each of these compounds? They are listed below.
1. CN1CCc2cccc3c2[C@H]1Cc1ccc(O)c(O)c1-3
2. CC1Oc2cc3c(-c4c(O)cc(O)c5c(O)c6c(cc45)OC(C)C(C)C6=O)c(O)cc(O)c3c(O)c2C(=O)C1C (stereo unspecified)

Result block:
["> 6.40", "> 6.40"]

Could you tell me pIC50 for each of these compounds? They are listed below.
1. CN(C)c1ccc(NC(=O)c2ccc([N+](=O)[O-])cc2Cl)cc1
2. COc1cc(/C=N/NC(=O)c2ccc([N+](=O)[O-])cc2Cl)cc(Br)c1O
3. c1cncc(C2Nc3cccc4cccc(c34)N2)c1
4. COc1cc(/C=C(/NC(C)=O)C(=O)O)cc(Cl)c1OCc1ccc(Br)cc1

Result block:
1: < 4.27; 2: < 4.27; 3: 5.14; 4: < 4.27

Could you tell me pIC50 for each of these compounds? They are listed below.
1. COc1ccc2[nH]c3c(C)c4ccncc4c(C)c3c2c1
2. O=C(O)C[C@@H]1C(=O)O[C@@H]2C(COC(=O)c3cc(O)c(O)c(O)c3)O[C@@H](OC(=O)c3cc(O)c(O)c(O)c3)[C@@H](OC(=O)c3cc(O)c(O)c4c3[C@H]1[C@H](O)C(=O)O4)[C@H]2OC(=O)c1cc(O)c(O)c(O)c1 (stereo partly specified)

Result block:
> 6.40
> 6.40
